# system_tested: IRE1α-KR43 (Homo sapiens, UniProt O75460)
# Sequence (O75460 465-977 limits assumed): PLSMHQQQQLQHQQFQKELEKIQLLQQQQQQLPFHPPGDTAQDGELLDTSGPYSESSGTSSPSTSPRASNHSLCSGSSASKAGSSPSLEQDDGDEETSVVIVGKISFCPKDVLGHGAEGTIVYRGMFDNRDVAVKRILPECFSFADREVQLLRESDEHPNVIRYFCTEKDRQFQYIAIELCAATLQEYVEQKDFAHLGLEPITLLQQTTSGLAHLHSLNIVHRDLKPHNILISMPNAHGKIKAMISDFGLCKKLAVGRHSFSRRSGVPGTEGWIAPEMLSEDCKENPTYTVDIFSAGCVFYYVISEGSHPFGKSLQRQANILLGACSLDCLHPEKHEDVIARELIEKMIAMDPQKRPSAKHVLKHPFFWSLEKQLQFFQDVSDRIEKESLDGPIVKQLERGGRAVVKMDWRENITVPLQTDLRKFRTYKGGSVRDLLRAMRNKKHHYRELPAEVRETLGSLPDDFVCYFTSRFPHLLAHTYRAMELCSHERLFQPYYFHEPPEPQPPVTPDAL
# measurement_notes: FRET-based RNA cleavage assay (fluorescent HP17 substrate) of IRE1α-KR43 RNase activity
parameter: EC50

Solved entries:
# compound, EC50
rows = [
    ("CSc1ccc(NC(=O)Nc2ccc(Nc3nccc(Nc4cc(C5CC5)[nH]n4)n3)cc2)cc1 [IPA]", "360 nM"),
    ("c1cc(Nc2cc(C3CC3)[nH]n2)nc(Nc2ccc3[nH]cnc3c2)n1 [APY29, reference compound]", "5200 nM"),
]

Moving on to the next compound.
Given item O=C(Nc1ccc(Nc2nccc(Nc3cc(C4CC4)[nH]n3)n2)cc1)Nc1cccc(C(F)(F)F)c1 [cmp1] , the value recorded as its EC50 is 950 nM
